So I've got a bunch of compounds here, and I need their melting point values.

Could you tell me which melting point is on file for `Cc1oc(-c2ccccc2)nc1C=Cc1ccc(/C=C/C=C2/OC(=O)NC2=O)cc1` ? 274 to 275 °C

Now consider CCn1nc(C(F)(F)F)c(CS(=O)(=O)C2=NOC(C)(CCl)C2)c1C#N (stereo not given) . 76 to 78 °C

Now the compound Cc1ccc(S(=O)(=O)c2ccc3c(c2)C(O)C(Br)C(C)(C)O3)cc1 (stereo not given) 141 to 142 °C

Note, next up: `Brc1ccc(C2=CCN(CCSCc3c[nH]c4ccccc34)CC2)cc1` 166 to 167 °C

Thanks! And `CCn1cc(C(=O)O)c2nc3c(C)cccc3cc2c1=O` ? 251 to 253 °C

What do we get for COc1ccc(-c2nc(C(O)C(F)(F)F)[nH]c2-c2ccc(OC)cc2)cc1 (stereo not given) ? 242 to 245 °C

Further, for O=C(CN1CC2C(=O)N(c3cc(Cl)cc(Cl)c3)C(=O)C2C1)c1ccc(Br)cc1 (stereo not given) ? 150 °C

Thanks! And `CCCCCCN(CCCCCC)c1ccc(C2=C(C#N)C(=C(C#N)C#N)OC2(C)C)s1` ? 134 °C

Ok, now `CCCCCCCCCCC1C(=O)NC(=O)NC1=O` 190 °C

And the next one, `COc1ccc2oc(Cc3ccccc3)c(CC#N)c2c1` ? 69 to 70 °C

###

result_type: melting point

Field request: melting point | item: `O=C(NCc1cccs1)c1ccccc1C(c1ccc(O)cc1)c1ccc(O)cc1` 109 to 111 °C

Thanks! And `C#CCC(CC#C)NC(=O)OC(C)(C)C` ? 64 to 67 °C

For `O=C(NC(=O)c1ccccc1Cl)Nc1ccc(C=C(Br)Br)cc1` then? 190 °C

Check `CCCCN(Cc1ccc(-c2ccccc2-c2nnn[nH]2)cc1)c1ncncc1C(=O)OCOC(C)=O` too. 65 to 69 °C

Next record, please: `Cn1cc(-c2ccc3c(c2)C(C)(C)CCC3(C)C)cc1C=CC(=O)O` 165 to 166 °C

Next up: `COc1ccc2c(c1)CCC[C@H]2NC(=O)c1cccc(Cl)c1O` 111 to 113 °C

Same question for `C#CCN(Cc1cc2c(=O)[nH]c(COS(C)(=O)=O)nc2cc1Cl)c1ccc(C(=O)OC(C)(C)C)cc1` please. 178 to 181 °C

Lookup `Nc1c([N+](=O)[O-])sc2cc(Cl)ccc12` 243 to 245 °C

Please give the result for `CCOP(=O)(OCC)c1ccc(CNC(=O)C2=Cc3cc(C4CCCCC4)ccc3CC2)cc1` too. 169 to 170 °C

Cool, now `CCCCCCCCCCCCCCc1ccc(S(=O)(=O)Nc2nncs2)cc1` 116 to 117 °C

Likewise for COc1ccc(S(=O)(=O)C(CCCCOc2ccccc2)(Cc2cccnc2)C(=O)NO)cc1 (stereo not given) ? 68 °C

And what about the compound `COP(=O)(Cc1ccc([N+](=O)[O-])c2ccccc12)OC` ? 128 to 129 °C

What do you have for `Cc1ccc(C(=O)O)c(Oc2ccc3c(c2)c(C(=O)O)c(CC(=O)O)n3-c2ccc(OC(C)C)cc2)n1` ? 179 °C

Request: COC(=O)NC1CCc2sc(Cl)cc2C1 (stereo not given) 120 to 121 °C

Now try `COc1cc2cc(C(=O)OC(C)(C)C)c(N)cc2cc1O` . 262 to 263 °C

Similarly, `Nc1ccc(Cl)n2nc(SCc3ccccc3)nc12` ? 113 to 114 °C

Request: CN(C(=O)CN1C(=O)C(NC(=O)Nc2cccc(C#N)c2)N=C(CN2CCOCC2)c2ccccc21)c1ccccc1 (stereo not given) 165 to 167 °C

Item: N#CC(Cc1ccccn1)(C(N)=O)c1ccc([N+](=O)[O-])cc1 (stereo not given) 79 to 81 °C

Please give the result for `O=C(O)c1cn2c3c(c(F)c(F)cc3c1=O)OCC2` too. > 300 °C

Another compound to check: `Clc1ccc2nc(Cl)nnc2c1` 113 to 115 °C

Then this compound: `Nc1ccc(Oc2ncc(Cl)cn2)cc1` 125 °C

Thanks! And `Cc1ccc(-c2ccc3c(c2)C=C(C(=O)Nc2ccc(Cc4ncccc4O)cc2)CCO3)cc1` ? 285 to 288 °C

Item: `CCc1nc2c(N)nc3c(c2n1CCOCCS(C)(=O)=O)CCCC3` 146 to 148 °C

Now this one: `NC(=O)c1ncn2c(-c3cccc(C(F)(F)F)c3)ccnc12` 239 to 240 °C

Entry to check: CCS(=O)c1cc(C(=O)NCC2CCCN2CC2CC2)c(OC)cc1N (stereo not given) 158 to 162 °C

What do we get for `COc1cc(OC)c(OC)cc1CN1CCc2cc(O)ccc2C1` ? 188 to 191 °C

Also `COC(=O)[C@@H]1[C@@H](O)CCN1C(=O)Nc1ccc(C#N)c(Cl)c1C` ? 189 to 191 °C

What would you report for `O=c1c(CCCCCc2cccnc2)cc2cccnc2n1-c1cccc([N+](=O)[O-])c1` ? 155 °C

What about `C=C(C(=O)c1ccc(C(=O)O)cc1)c1ccc(OC)c(-c2cccs2)c1` ? 163 to 164 °C

Next compound: CCOC(=O)C(Sc1ccc(O)cc1)c1ccc(Br)cc1 (stereo not given) 55.6 °C

Subsequent entry: `Cc1ccc(-c2nc(Cl)cc(-c3ccccc3)n2)cc1` 86 to 87 °C

Then `CC(=O)Sc1ccc(C#C[Si](C)(C)C)cc1` ? 45 to 47 °C

Subsequent entry: O=C(NC1CCC(CCN2CCC(c3cccc4c3CCO4)CC2)CC1)C1CCOC1 (racemic) 211 °C

Would you kindly repeat that for `N#CN=C(Nc1ccc([N+](=O)[O-])cc1O)Nc1ccccc1Cl` ? 163 to 164 °C

Likewise for CC1(C)COC(c2ccc(F)cc2-c2ccc3c(c2)CCC(Cc2ccccc2)C3O)=N1 (stereo not given) ? 88 to 89 °C

Okay, and `COc1cc(C=CC=C2SC(=O)NC2=O)ccc1OCc1coc(-c2ccccc2)n1` ? 230 to 231 °C

Similarly, `COc1ccc2[nH]c(=O)[nH]c(=O)c2c1OC` ? 266 to 268 °C

Another: O=C(O)C1CCc2c(c3ccccc3n2C(=O)c2cccc(I)c2)C1 (stereo not given) 210 to 212 °C

Please do the same for `CCOP(=O)(OCC)c1c(-c2c(OC)ccc3ccccc23)cc2c(c1C)COC2` as well. 68 to 69.9 °C

Now the compound `CCOC(=O)c1ccc(-c2ccc(OCCCNC)c(-c3ccc4c(c3)C(C)(C)CCC4(C)C)c2)cc1` 141 °C

###

Please provide measured melting point for the entries that follow.

Dear colleague, I am looking for the recorded melting point of the following compound: `COC(=O)[C@@H]1CCCN1C(=O)c1cccc(O)c1[N+](=O)[O-]` 114 to 116 °C

And the next one, `CCN1C(=O)CN=C(c2ccccc2F)c2cc(C(C)=NO)ccc21` ? 236 to 238 °C

Here is the next compound: `COC(=O)CN(CCN(CCN(CC(=O)OC)S(=O)(=O)c1ccc(C)cc1)S(=O)(=O)c1ccc(C)cc1)S(=O)(=O)c1ccc(C)cc1` 141 to 142 °C

Another compound: `NS(=O)(=O)c1ccc(-c2[nH]c3ccc(Br)cc3c2-c2ccccc2)cc1` 310 to 312 °C

# iterate: `COCCCc1ccc2oc(-c3cc4cccn4cn3)cc(=NO)c2c1` 172 to 173 °C

Next record, please: `CCCc1c(COc2ccc(Cc3nnn(Cc4nnn[nH]4)n3)cc2)ccc(C(C)=O)c1O` 137 to 139 °C

Now this one: O=c1[nH]c2ncc(-c3ccc(O)cc3)nc2n1CC1CCCO1 (centres undefined) 256 to 258 °C

Moving on to the next compound: COC(=O)c1ccc(C2C(C#N)=C(CC(C)C)NC(C)=C2C(=O)OC(C)(C)C)cc1 (centres undefined) 191 to 193 °C

Next up: c1ccc(-c2cc(CCC3CCNC3)c3ccccc3n2)cc1 (centres undefined) 140 °C

###

Please provide measured melting point for the entries that follow.

// lookup melting point for `CCOC(=O)c1c(C=O)c2c(Cl)cc(Cl)cc2n1S(=O)(=O)c1ccccc1` 226 °C

Now the compound CCOC(=O)Cc1c(C(C)C(=O)O)c2cc(OC)ccc2n1Cc1ccc(Cl)cc1 (stereo not given) 163 to 165 °C

Query `CC(=O)N1N=C(c2ccc(N)c(C)c2)c2cc(Cl)ccc2C=C1C` next 209 to 211 °C

Same read-out for `COc1cc(NS(C)(=O)=O)c(I)cc1N` ? 110 to 112 °C

Same question, `O=C(NCc1cccnc1)C1Oc2ccc(Cl)cc2Cc2cc(Cl)ccc2O1` this time 225 to 226 °C
